Values were extracted from ChEMBL document CHEMBL5360622.

- test system: Glycogen synthase kinase-3 beta (Homo sapiens)
- Sequence (P49841 whole entry): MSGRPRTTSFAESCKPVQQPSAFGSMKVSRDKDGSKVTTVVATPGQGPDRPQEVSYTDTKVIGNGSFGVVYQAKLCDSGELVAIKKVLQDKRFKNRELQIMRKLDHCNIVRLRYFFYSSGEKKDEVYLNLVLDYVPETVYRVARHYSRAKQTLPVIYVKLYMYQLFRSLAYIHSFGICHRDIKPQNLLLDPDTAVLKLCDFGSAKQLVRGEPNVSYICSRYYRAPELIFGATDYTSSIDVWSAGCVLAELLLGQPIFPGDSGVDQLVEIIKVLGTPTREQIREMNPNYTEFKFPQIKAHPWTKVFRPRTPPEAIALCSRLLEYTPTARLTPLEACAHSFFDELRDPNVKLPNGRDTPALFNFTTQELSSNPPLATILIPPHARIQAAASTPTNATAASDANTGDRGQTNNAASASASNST
measured parameter: IC50

Here's what some known entries look like.
{"columns": ["compound", "IC50"],
 "data": [
  ["O=C1NC(NC23CC4CC(CC(C4)C2)C3)=N/C1=C\\c1ccc2[nH]cnc2c1", "> 10 µM"],
  ["Cn1cnc2ccc(/C=C3\\N=C(NC4CCCCCC4)NC3=O)cc21", "> 10 µM"],
  ["O=C1NC(Nc2ccc(F)cc2)=N/C1=C\\c1ccc2ncsc2c1", "> 10 µM"],
  ["Cn1ncc2cc(/C=C3\\N=C(NC4CCCCC4)NC3=O)ccc21", "> 10 µM"]
]}

Exercise: What IC50 appears in the records for this compound with Glycogen synthase kinase-3 beta (Homo sapiens)? O=C1NC(NCC23CC4CC(CC(C4)C2)C3)=N/C1=C\c1ccc2ncsc2c1
Solution: > 10 µM

Exercise: What IC50 appears in the records for this compound with Glycogen synthase kinase-3 beta (Homo sapiens)? O=C1NC(NC2CCCCCC2)=N/C1=C\c1ccc2c(c1)OCO2
Solution: > 10 µM

Exercise: What IC50 appears in the records for this compound with Glycogen synthase kinase-3 beta (Homo sapiens)? Cn1ncc2cc(/C=C3\N=C(NC45CC6CC(CC(C6)C4)C5)NC3=O)ccc21
Solution: > 10 µM

Exercise: What IC50 appears in the records for this compound with Glycogen synthase kinase-3 beta (Homo sapiens)? CC(C)[C@@H]1CC[C@@H](C)C[C@H]1NC1=N/C(=C\c2ccc3ncsc3c2)C(=O)N1
Solution: > 10 µM

Exercise: What IC50 appears in the records for this compound with Glycogen synthase kinase-3 beta (Homo sapiens)? O=C1NC(N[C@@H]2CCOC2)=N/C1=C\c1ccc2ncsc2c1
Solution: > 10 µM

Exercise: What IC50 appears in the records for this compound with Glycogen synthase kinase-3 beta (Homo sapiens)? CN1CCC(CNC2=N/C(=C\c3ccc4ncsc4c3)C(=O)N2)CC1
Solution: > 10 µM

Exercise: What IC50 appears in the records for this compound with Glycogen synthase kinase-3 beta (Homo sapiens)? O=C1NC(NC23CC4CC(CC(C4)C2)C3)=N/C1=C\c1ccc2c(c1)CCO2
Solution: > 10 µM

Exercise: What IC50 appears in the records for this compound with Glycogen synthase kinase-3 beta (Homo sapiens)? Cn1cc2cc(/C=C3\N=C(NC4CCCCC4)NC3=O)ccc2n1
Solution: > 10 µM

Exercise: What IC50 appears in the records for this compound with Glycogen synthase kinase-3 beta (Homo sapiens)? O=C1NC(N[C@@H](CO)Cc2ccccc2)=N/C1=C\c1ccc2ncsc2c1
Solution: 2.74 µM

Exercise: What IC50 appears in the records for this compound with Glycogen synthase kinase-3 beta (Homo sapiens)? CN1CCN(c2cnc(NC3=N/C(=C\c4ccc5ncsc5c4)C(=O)N3)nc2)CC1
Solution: > 10 µM

Exercise: What IC50 appears in the records for this compound with Glycogen synthase kinase-3 beta (Homo sapiens)? CN1CCC(NC2=N/C(=C\c3ccc4ncsc4c3)C(=O)N2)CC1
Solution: > 10 µM

Exercise: What IC50 appears in the records for this compound with Glycogen synthase kinase-3 beta (Homo sapiens)? O=C1NC(N[C@@H]2CCCOC2)=N/C1=C\c1ccc2ncsc2c1
Solution: 9.2 µM

Exercise: What IC50 appears in the records for this compound with Glycogen synthase kinase-3 beta (Homo sapiens)? CCOC[C@@H](CC(C)C)NC1=N/C(=C\c2ccc3ncsc3c2)C(=O)N1
Solution: 2.68 µM

Exercise: What IC50 appears in the records for this compound with Glycogen synthase kinase-3 beta (Homo sapiens)? Cc1nc2ccc(/C=C3\N=C(NC45CC6CC(CC(C6)C4)C5)NC3=O)cc2s1
Solution: > 10 µM

---

pIC50: −log10 of the molar value.
Reported values: pIC50 for Dual specificity protein kinase CLK2 (Homo sapiens), one per item.
measured parameter: pIC50

Here's what some known entries look like.
{"columns": ["smiles text", "test system", "pIC50"],
 "data": [
  ["O=C1NC(N[C@H]2CN3CCC2CC3)=N/C1=C\\c1ccc2ncsc2c1", "Dual specificity protein kinase CLK2 (Homo sapiens)", 7.40],
  ["O=C1NC(N[C@@H]2CN3CCC2CC3)=N/C1=C\\c1ccc2ncsc2c1", "Dual specificity protein kinase CLK2 (Homo sapiens)", 5.93]
]}

P = CCOC[C@@H](CC(C)C)NC1=N/C(=C\c2ccc3ncsc3c2)C(=O)N1
Q = COC(=O)[C@@H](CC(C)C)NC1=N/C(=C\c2ccc3ncsc3c2)C(=O)N1
Exercise: Lab notebook, comparison: P versus Q , higher pIC50 goes to which? Your answer should be the label of the entry you select.
Solution: P
(P: 6.96, Q: 6.42)

---

IC50: recorded values
- test system: Cyclin-dependent kinase 5/CDK5 activator 1 (Homo sapiens)
- Sequence (Q00535 whole entry): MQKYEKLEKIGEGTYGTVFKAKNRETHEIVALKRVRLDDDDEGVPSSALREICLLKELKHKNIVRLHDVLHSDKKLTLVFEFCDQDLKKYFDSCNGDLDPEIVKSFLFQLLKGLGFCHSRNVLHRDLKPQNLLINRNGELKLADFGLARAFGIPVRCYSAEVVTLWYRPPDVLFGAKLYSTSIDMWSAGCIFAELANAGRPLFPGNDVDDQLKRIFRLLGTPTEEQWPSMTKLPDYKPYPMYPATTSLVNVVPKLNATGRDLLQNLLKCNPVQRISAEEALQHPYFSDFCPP
- Sequence (Q15078 whole entry, further chain): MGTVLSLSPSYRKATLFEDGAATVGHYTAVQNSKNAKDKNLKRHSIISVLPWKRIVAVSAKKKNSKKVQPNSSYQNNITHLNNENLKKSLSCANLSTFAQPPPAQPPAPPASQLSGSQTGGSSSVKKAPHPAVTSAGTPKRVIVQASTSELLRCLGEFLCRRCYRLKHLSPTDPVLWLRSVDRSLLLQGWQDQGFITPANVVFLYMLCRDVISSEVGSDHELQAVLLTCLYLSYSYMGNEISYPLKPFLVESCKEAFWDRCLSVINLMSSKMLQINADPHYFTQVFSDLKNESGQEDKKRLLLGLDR
- Type: cell-based, Sf9

Here's what some known entries look like.
{"columns": ["molecule", "measured parameter", "value observed"],
 "data": [
  ["CN1CCCC(NC2=N/C(=C\\c3ccc4ncsc4c3)C(=O)N2)C1 (racemic)", "IC50", "> 10 µM"],
  ["O=C1NC(NC23CC4CC(CC(C4)C2)C3)=N/C1=C\\c1ccc2ncoc2c1", "IC50", "0.28 µM"],
  ["Cc1ccc(CNC2=N/C(=C\\c3ccc4ncsc4c3)C(=O)N2)cc1C", "IC50", "> 10 µM"],
  ["C[C@@H]1[C@H]2C[C@@H](C[C@H]1NC1=N/C(=C\\c3ccc4ncsc4c3)C(=O)N1)C2(C)C", "IC50", "> 10 µM"],
  ["COC12CC3CC(CC(NC4=N/C(=C\\c5ccc6ncsc6c5)C(=O)N4)(C3)C1)C2", "IC50", "0.304 µM"]
]}

Exercise: # lookup: IC50 of C[C@@H](NC1=N/C(=C\c2ccc3ncsc3c2)C(=O)N1)C1CCCCC1
Solution: > 10 µM

Exercise: # lookup: IC50 of O=C1NC(NC2C3CC4CC(C3)CC2C4)=N/C1=C\c1ccc2ncsc2c1 (configuration not stated)
Solution: > 10 µM

---

- test system: Glycogen synthase kinase-3 beta (Homo sapiens)
IC50: recorded values

Here's what some known entries look like.
{"columns": ["compound", "value observed"],
 "data": [
  ["Cc1ccc(CNC2=N/C(=C\\c3ccc4ncsc4c3)C(=O)N2)cc1C", "> 10 µM"],
  ["O=C1NC(NC2CCCCC2)=N/C1=C\\c1ccc2[nH]ncc2c1", "> 10 µM"],
  ["O=C1NC(NC2CCCCC2)=N/C1=C\\c1ccc2c(c1)CCO2", "> 10 µM"],
  ["Cn1ncc2cc(/C=C3\\N=C(NC4CCCCCC4)NC3=O)ccc21", "> 10 µM"],
  ["O=C1NC(NC2CCCCCC2)=N/C1=C\\c1ccc2[nH]ccc2c1", "> 10 µM"],
  ["CC1(C)C2CCC1(C)[C@H](NC1=N/C(=C\\c3ccc4ncsc4c3)C(=O)N1)C2 (some centres undefined)", "> 10 µM"],
  ["O=C1NC(NC2CCCCCC2)=N/C1=C\\c1ccc2nnsc2c1", "> 10 µM"],
  ["CN1CC[C@](C)(NC2=N/C(=C\\c3ccc4ncsc4c3)C(=O)N2)C1=O (stereo in doubt)", "> 10 µM"]
]}

Exercise: # lookup: IC50 of O=C1NC(N[C@@H]2CN3CCC2CC3)=N/C1=C\c1ccc2ncsc2c1
Solution: > 10 µM

---

Reported values: IC50 for Dual specificity tyrosine-phosphorylation-regulated kinase 3 (Homo sapiens), one per item.

{"columns": ["smiles text", "IC50"],
 "data": [
  ["O=C1NC(Nc2ccc(N3CCOCC3)cc2)=N/C1=C\\c1ccc2ncsc2c1", "> 10 µM"],
  ["Cn1ccc2cc(/C=C3\\N=C(NC4CCCCCC4)NC3=O)ccc21", "> 10 µM"]
]}

Then there is this compound:
Exercise: What IC50 appears in the records for this compound with Dual specificity tyrosine-phosphorylation-regulated kinase 3 (Homo sapiens)? CCCCCCc1ccc(NC2=N/C(=C\c3ccc4ncsc4c3)C(=O)N2)cc1
Sequence (O43781 whole entry): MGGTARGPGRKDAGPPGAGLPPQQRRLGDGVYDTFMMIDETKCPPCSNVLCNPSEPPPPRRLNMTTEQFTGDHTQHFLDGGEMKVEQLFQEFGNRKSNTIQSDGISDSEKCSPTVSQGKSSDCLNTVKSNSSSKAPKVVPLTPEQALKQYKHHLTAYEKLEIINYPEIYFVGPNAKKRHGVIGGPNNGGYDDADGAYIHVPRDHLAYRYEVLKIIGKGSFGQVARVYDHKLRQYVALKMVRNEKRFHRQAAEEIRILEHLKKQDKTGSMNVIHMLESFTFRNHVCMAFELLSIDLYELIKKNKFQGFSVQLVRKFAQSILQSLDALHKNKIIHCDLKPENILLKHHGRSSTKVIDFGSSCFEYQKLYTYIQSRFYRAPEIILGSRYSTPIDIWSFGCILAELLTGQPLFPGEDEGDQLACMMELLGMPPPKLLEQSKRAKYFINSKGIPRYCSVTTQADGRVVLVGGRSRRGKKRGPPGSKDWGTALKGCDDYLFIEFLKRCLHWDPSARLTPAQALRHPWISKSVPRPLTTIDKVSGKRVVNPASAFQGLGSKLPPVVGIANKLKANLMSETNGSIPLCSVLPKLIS
Solution: > 10 µM

---

Reported values: pIC50 for Glycogen synthase kinase-3 beta (Homo sapiens, UniProt P49841), one per item.
pIC50: −log10 of the molar value.

{"columns": ["smiles text", "measured parameter", "value observed"],
 "data": [
  ["C[C@@H](NC1=N/C(=C\\c2ccc3ncsc3c2)C(=O)N1)C1CCCCC1", "pIC50", "< 5.00"]
]}

Exercise: # lookup: pIC50 of O=C1NC(NC2CCC(F)(F)CC2)=N/C1=C\c1ccc2ncsc2c1
Solution: < 5.00

Exercise: # lookup: pIC50 of CC[C@H](CO)NC1=N/C(=C\c2ccc3ncsc3c2)C(=O)N1
Solution: < 5.00

---

Target sequence: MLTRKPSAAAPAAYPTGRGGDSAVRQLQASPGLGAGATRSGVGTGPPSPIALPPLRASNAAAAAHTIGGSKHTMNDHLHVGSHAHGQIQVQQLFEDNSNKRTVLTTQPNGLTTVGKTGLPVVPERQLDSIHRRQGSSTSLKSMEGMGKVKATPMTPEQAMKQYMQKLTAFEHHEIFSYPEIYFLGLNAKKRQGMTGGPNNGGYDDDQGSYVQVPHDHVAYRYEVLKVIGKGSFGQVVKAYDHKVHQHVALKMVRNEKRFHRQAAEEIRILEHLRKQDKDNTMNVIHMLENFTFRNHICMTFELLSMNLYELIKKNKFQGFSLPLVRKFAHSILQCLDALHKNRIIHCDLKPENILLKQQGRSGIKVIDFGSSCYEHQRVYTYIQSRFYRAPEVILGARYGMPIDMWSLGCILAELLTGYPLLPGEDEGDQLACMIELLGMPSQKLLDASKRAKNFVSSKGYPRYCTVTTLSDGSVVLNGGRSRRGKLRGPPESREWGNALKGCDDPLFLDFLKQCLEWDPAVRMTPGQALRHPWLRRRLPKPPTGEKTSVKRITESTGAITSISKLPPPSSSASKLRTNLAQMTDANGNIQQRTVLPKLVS
measured parameter: IC50 (µM)

Here's what some known entries look like.
{"columns": ["compound", "value observed"],
 "data": [
  ["O=C1NC(NC(CO)C2CCCCC2)=N/C1=C\\c1ccc2ncsc2c1 (racemic)", 1.38],
  ["Cn1ncc2cc(/C=C3\\N=C(NC4CCCCC4)NC3=O)ccc21", 2.54],
  ["O=C1NC(N[C@@H](CO)Cc2ccccc2)=N/C1=C\\c1ccc2ncsc2c1", 0.886],
  ["O=C1NC(Nc2ccc(F)cc2)=N/C1=C\\c1ccc2ncsc2c1", 0.743],
  ["CO[C@H]1CCCC[C@H]1NC1=N/C(=C\\c2ccc3ncsc3c2)C(=O)N1 (racemic)", 1.57]
]}

A = O=C1CC[C@H](NC2=N/C(=C\c3ccc4ncsc4c3)C(=O)N2)CN1
B = Cn1cnc2ccc(/C=C3\N=C(NC4CCCCC4)NC3=O)cc21
Exercise: Lab notebook, comparison: A versus B , higher IC50 goes to which? Your answer should be the label of the entry you select.
Solution: B
(B: 1.47 µM, A: 0.664 µM)

a = COc1nc(C)ccc1NC1=N/C(=C\c2ccc3ncsc3c2)C(=O)N1
b = COCC(Cc1ccccc1)NC1=N/C(=C\c2ccc3ncsc3c2)C(=O)N1 (configuration not stated)
c = O=C1NC(NC2CCCSC2)=N/C1=C\c1ccc2ncsc2c1 (racemic)
d = CO[C@@H]1Cc2ccccc2[C@H]1NC1=N/C(=C\c2ccc3ncsc3c2)C(=O)N1 (racemic)
Exercise: With regard to IC50, arrange the entries in ascending order, please. Hello, could you send the labels back in the order asked? Thank you.
Solution: c, d, b, a

I = O=C1NC(Nc2cccc(C(F)(F)F)c2)=N/C1=C\c1ccc2ncsc2c1
II = Cn1cnc2ccc(/C=C3\N=C(NC4CCCCCC4)NC3=O)cc21
Exercise: Smaller IC50 value, I vs II ? Your answer should be the label of the entry you select.
Solution: II
